These entries and their values trace back to patent US20140112915A1.

Biological target: T1, Recombinant human IL-18 (human, UniProt Q14116 37-193)
T1 sequence: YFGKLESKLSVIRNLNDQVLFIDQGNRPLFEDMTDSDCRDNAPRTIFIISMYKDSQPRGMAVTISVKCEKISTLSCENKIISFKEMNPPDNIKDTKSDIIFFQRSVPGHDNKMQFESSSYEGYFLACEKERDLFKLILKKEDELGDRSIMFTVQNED
Test: cell-based or functional assay
Experimental endpoint: IC50, inhibition of IFN-γ release, KG-1 cells, Hu IL-18 (1 nM)
Write the number in nM without appending the unit.

MOR10222_E1Q_N30S_M54Y (antibody, human IgG1, lambda, L234A L235A, V domains shown) VH: QVQLVQSGAEVKKPGSSVKVSCKASGGTFSSYAISWVRQAPGQGLEWMGNIIPYTGQTYYAQKFQGRVTITADESTSTAYMELSSLRSEDTAVYYCARAAYHPLVFDNWGQGTLVTVSS VL: QSVLTQPPSASGTPGQRVTISCSGSSSNIGNHYVNWYQQLPGTAPKLLIYRNNHRPSGVPDRFSGSKSGTSASLAISGLQSEDEADYYCQSWDYSGFSTVFGGGTKLTVLG: 4.8

Query binder follows.
Which value of IC50, inhibition of IFN-γ release, KG-1 cells, Hu IL-18 (1 nM) has been reported for MOR10222_E1Q_N30S_M54N (antibody, human IgG1, lambda, L234A L235A, V domains shown) VH: QVQLVQSGAEVKKPGSSVKVSCKASGGTFSSYAISWVRQAPGQGLEWMGNIIPNTGQTYYAQKFQGRVTITADESTSTAYMELSSLRSEDTAVYYCARAAYHPLVFDNWGQGTLVTVSS VL: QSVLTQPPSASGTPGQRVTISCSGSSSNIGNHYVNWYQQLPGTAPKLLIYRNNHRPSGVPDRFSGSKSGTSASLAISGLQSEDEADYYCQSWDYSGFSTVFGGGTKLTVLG in the records?
5.2
